# Tested on: Drosophila flies
# PROTOCOL: Proboscis extension response (PER) behavioral assay
# Format: in vivo, Drosophila melanogaster
# ASSAY_CONTEXT: dTrpA1 loss-of-function mutants, ingestion permitted
EXPERIMENTAL_ENDPOINT: Effect on PER in dTrpA1 loss-of-function mutants

INSERT INTO assay_data (compound, target_system, test_result) VALUES
  ('O=CC=Cc1ccccc1 [CA, cinnamaldehyde]', 'Drosophila flies', 'no reduction'),
  ('CN1C(=O)C=CC1=O [NMM, N-methyl-maleimide]', 'Drosophila flies', 'no reduction'),
  ('C=CCN=C=S [AITC, allyl isothiocyanate]', 'Drosophila flies', 'no reduction');

Reference for the values: patent US9986740B2
